List of IC50 values.
molecular target: HLA B*0801 (Homo sapiens, UniProt P01889, A93T/A95T/D138N/E176V/E187T/K202T/Q94N/R180D/S35A/V36M/Y33D/Y91F); assay: biochemical
Where a SMILES comes first, the peptide text is derived from it.
// return numeric value only (unit: nM, not printed)

INSERT INTO results (compound, unit_of_measure, observed) VALUES
  ('N=C(N)NCCC[C@H](NC(=O)[C@H](CCCNC(=N)N)NC(=O)[C@@H](N)CC(=O)O)C(=O)N[C@@H](CO)C(=O)N[C@@H](Cc1ccccc1)C(=O)N[C@@H](Cc1ccccc1)C(=O)N[C@@H](CCCCN)C(=O)N[C@@H](CS)C(=O)N[C@@H](Cc1ccccc1)C(=O)O [3102.0758] (H-DRRSFFKCF-OH)', 'nM', 76);

Provide IC50 value for the following compound: CC[C@H](C)[C@H](NC(=O)CNC(=O)[C@H](Cc1c[nH]cn1)NC(=O)[C@H](CCCNC(=N)N)NC(=O)[C@H](CCC(N)=O)NC(=O)[C@H](CC(C)C)NC(=O)[C@H](CCCCN)NC(=O)[C@@H](N)CO)C(=O)N[C@@H](CC(C)C)C(=O)O [3102.0549] (H-SKLQRHGIL-OH) 16

Find the measured IC50 of CC(C)C[C@H](NC(=O)[C@@H](N)Cc1c[nH]cn1)C(=O)N[C@@H](CCCCN)C(=O)N[C@@H](Cc1c[nH]cn1)C(=O)N[C@@H](Cc1c[nH]cn1)C(=O)N[C@@H](CCCCN)C(=O)N[C@@H](CCC(N)=O)C(=O)N[C@@H](CS)C(=O)N[C@H](C(=O)O)C(C)C [3102.0763] (H-HLKHHKQCV-OH) and report it. 4.5
